These data points were gathered from the supplement of paper PMC13380429.

System: Vero E6
assay_explanation: cell viability relative to DMSO; higher = less toxic
recorded_conditions: 72 h; 10 nM
quantity_measured: cell viability (%)
Please respond with the number in % and leave the unit unwritten.

Worked set:
[[record]]
compound = "CC(NCCC(c1ccccc1)c1ccccc1)c1ccccc1 (stereo not drawn) [fendiline]"
obs_value = 98.6

[[record]]
compound = "CCOC(=O)c1ncn2c1CN(C)C(=O)c1cc(F)ccc1-2 [flumazenil]"
obs_value = 97.2

[[record]]
compound = "O=C(c1ccc2nccnc2c1)N1CCCCC1 [ampalex]"
obs_value = 96.8

[[record]]
compound = "N[C@@H](C(=O)O)c1nn[nH]n1 (racemic) [tetrazol-5-yl-glycine-(RS)]"
obs_value = 104


Value wanted: cell viability (Vero E6) of entry `CNS(=O)(=O)Nc1nccc(Cc2c(C)c3ccc(Oc4ncccn4)cc3oc2=O)c1F`
92.9

Value wanted: cell viability (Vero E6) of entry `COc1ccc2nc3ccc(Cl)cc3c(SCCCN)c2c1`
93.7

Value wanted: cell viability (Vero E6) of entry COc1ccc(/C=C/C(=O)O)cc1 [trans-4-methoxycinnamic-acid]
102

Value wanted: cell viability (Vero E6) of entry C[N@+]1(CC2CC2)CC[C@]23c4c5ccc(O)c4O[C@H]2C(=O)CC[C@@]3(O)[C@H]1C5 [methylnaltrexone]
105

Value wanted: cell viability (Vero E6) of entry C#C[C@]1(OC(=O)CCCCCC)CC[C@H]2[C@@H]3CCC4=CC(=O)CC[C@@H]4[C@H]3CC[C@@]21C [norethisterone-enanthate]
97.1

Value wanted: cell viability (Vero E6) of entry C=C1CC[C@H](O)C/C1=C/C=C1\CCC[C@]2(C)[C@@H]([C@H](C)CCCC(C)C)CC[C@@H]12 [cholecalciferol]
85.5

Value wanted: cell viability (Vero E6) of entry CC(C)NCCN(C(C)C)S(=O)(=O)c1ccc(Cl)cc1Cl [RN-1734]
100

Value wanted: cell viability (Vero E6) of entry Oc1cc2c(c(Cl)c1O)CCNCC2c1ccccc1 (stereo not drawn)
106

Value wanted: cell viability (Vero E6) of entry COc1ccc(-n2c(SCc3nc(-c4ccc(C)cc4)no3)nnc2-c2ccncc2)cc1 [JW-74]
105

Value wanted: cell viability (Vero E6) of entry CC1(C)O[C@@H]2C[C@H]3[C@@H]4CCC5=CC(=O)C=C[C@]5(C)[C@H]4[C@@H](O)C[C@]3(C)[C@]2(C(=O)CO)O1 [desonide]
102

Value wanted: cell viability (Vero E6) of entry CN(C)CCCNC(=O)c1ccc(-c2cc(O)c3ncccc3c2)cc1 [ML324]
100

Value wanted: cell viability (Vero E6) of entry Cc1nc2ccccn2c(=O)c1CCN1CCC(C(=O)c2ccc(F)cc2)CC1 [pirenperone]
101

Value wanted: cell viability (Vero E6) of entry O=C(O)c1ccc(-n2nc(-c3ccccc3O)nc2-c2ccccc2O)cc1 [deferasirox]
104

Value wanted: cell viability (Vero E6) of entry CCCCCCCC/C=C\CCCCCCCC(=O)NCCc1ccc(O)c(O)c1 [OLDA]
101

Value wanted: cell viability (Vero E6) of entry Cc1ccc2c(c1)[C@H]1CN(C)CC[C@H]1N2 [stobadine]
102

Value wanted: cell viability (Vero E6) of entry CN[C@@H](C)C(=O)N[C@H](C(=O)N1CCC[C@H]1C(=O)Nc1snnc1-c1ccccc1)C1CCCCC1 [GDC-0152]
98.9

Value wanted: cell viability (Vero E6) of entry CC(C)C(=O)Nc1ncc(-c2cc(C(F)F)nn2-c2c(Cl)cccc2Cl)s1 [LIMKi-3]
101

Value wanted: cell viability (Vero E6) of entry Cc1ncc([N+](=O)[O-])n1CCO [metronidazole]
99.7

Value wanted: cell viability (Vero E6) of entry CCOC(=O)CCC(=O)O[C@H]1[C@H](O[C@@H]2[C@@H](C)[C@H](O[C@H]3C[C@@](C)(OC)[C@@H](O)[C@H](C)O3)[C@@H](C)C(=O)O[C@H](CC)[C@@](C)(O)[C@H](O)[C@@H](C)C(=O)[C@H](C)C[C@@]2(C)O)O[C@H](C)C[C@@H]1N(C)C [erythromycin-ethylsuccinate]
94.8

Value wanted: cell viability (Vero E6) of entry C[N+](C)(C)CCCCCNCC12CC3CC(CC(C3)C1)C2 [IEM1460]
91

Value wanted: cell viability (Vero E6) of entry CC(C)(O)C(Cl)(Cl)Cl [chlorobutanol]
96.9

Value wanted: cell viability (Vero E6) of entry O=c1[nH]cnc2c1cnn2[C@@H]1O[C@H](CO)[C@@H](O)[C@H]1O [allopurinol-riboside]
100

Value wanted: cell viability (Vero E6) of entry O=C([O-])CN1CCN(CC(=O)[O-])CCN([C@H](CO)[C@H](O)CO)CCN(CC(=O)[O-])CC1.[Gd+3] (racemic) [gadobutrol]
105
